Measured values drawn from patent US20060074243A1 for this set.

Items are presented alongside their recorded pKi.
target: Human recombinant MMP-14 (Homo sapiens, UniProt P50281); construct: The catalytic domain enzyme was expressed in E. coli inclusion bodies, solubilized in urea; made in house; assay: In vitro MMP inhibition analysis (fluorogenic peptide substrate cleavage), Ki; format: biochemical; conditions: Table 2
Expect pKi as a plain number equal to -log10 of the molar concentration.

| Compound | Tested Target | Value |
| --- | --- | --- |
| CCCCOc1ccc(-c2ccc(S(=O)(=O)C3(C(=O)NO)CCN(C4CC4)CC3)cc2)cc1 | Human recombinant MMP-14 (Homo sapiens, UniProt P50281) | 6.51 |
| COCCN1CCC(C(=O)NO)(S(=O)(=O)c2ccc(-c3cnc(OCCC4CCCC4)cn3)cc2)CC1 | Human recombinant MMP-14 (Homo sapiens, UniProt P50281) | 6.03 |
| O=C(NO)C1(S(=O)(=O)c2ccc(-c3ccc(-c4ccc(OC(F)(F)F)cc4)cn3)cc2)CCN(C2CC2)CC1 | Human recombinant MMP-14 (Homo sapiens, UniProt P50281) | 6.25 |
| O=C(NO)C1(S(=O)(=O)c2ccc(-c3ccc(-n4cncn4)cc3)cc2)CCOCC1 | Human recombinant MMP-14 (Homo sapiens, UniProt P50281) | 6.04 |
| CCN1CCC(C(=O)NO)(S(=O)(=O)c2ccc(-c3ccc(OCCOC)c(F)c3)cc2)CC1 | Human recombinant MMP-14 (Homo sapiens, UniProt P50281) | 5.73 |

Query block: Which value of pKi has been reported for `O=C(NO)C1(S(=O)(=O)c2ccc(-c3ccc(CCC4CCCCC4)cn3)cc2)CCOCC1` in the records?
Result block: 6.13

Query block: // next record `CN1CCC(C(=O)NO)(S(=O)(=O)c2ccc(-c3ccc(OC(F)(F)C(F)F)cc3)cc2)CC1`
Result block: 5.98

Query block: Same lookup for `O=C(NO)C1(S(=O)(=O)c2ccc(-c3cnc(N4CCCC4)cn3)cc2)CCOCC1` , please.
Result block: 5.95

Query block: Input `COc1ccc(-c2ccc(S(=O)(=O)C3(C(=O)NO)CCOCC3)cc2)cc1F`
Result block: 7.95

Query block: Again, but for `CC(C)CC#Cc1cnc(-c2ccc(S(=O)(=O)C3(C(=O)NO)CCOCC3)cc2)cn1`
Result block: 6.58

Query block: `O=C(NO)C1(S(=O)(=O)c2ccc(-c3cnc(OCC4CC4)cn3)cc2)CCOCC1` ?
Result block: 7.34

Query block: One more compound: COCCC(C(=O)NO)S(=O)(=O)c1ccc(-c2ccc(CCC(F)(F)C(F)(F)F)cc2)cc1 (stereo not shown)
Result block: 5.23

###

Biological target: Human recombinant MMP-1 (Homo sapiens, UniProt P03956)
Construct: made in house; host or cells: MMP-1-transfected HT-1080 cells (spent media)
Sequence (P03956 100-469): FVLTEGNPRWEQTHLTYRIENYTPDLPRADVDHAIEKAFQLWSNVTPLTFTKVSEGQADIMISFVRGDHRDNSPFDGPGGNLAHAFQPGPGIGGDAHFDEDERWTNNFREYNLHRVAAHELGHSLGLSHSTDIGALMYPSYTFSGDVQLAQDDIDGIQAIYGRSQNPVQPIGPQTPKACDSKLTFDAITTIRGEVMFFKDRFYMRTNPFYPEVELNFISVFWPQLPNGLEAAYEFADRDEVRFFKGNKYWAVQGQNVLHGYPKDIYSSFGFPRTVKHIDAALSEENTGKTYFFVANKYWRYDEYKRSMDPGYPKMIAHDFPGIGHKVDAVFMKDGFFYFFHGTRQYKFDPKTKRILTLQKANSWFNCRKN
Assay: In vitro MMP inhibition analysis (fluorogenic peptide substrate cleavage), Ki
Type: biochemical
Conditions: Table 2
Entries and their measured Ki follow.

| Compound | Tested Target | Ki |
| --- | --- | --- |
| CC(C)N(C(=O)N1CCC(C(=O)NO)(S(=O)(=O)c2ccc(-c3ccc(CCC(F)(F)C(F)(F)F)cc3)cc2)CC1)C(C)C [Example 174] | Human recombinant MMP-1 (Homo sapiens, UniProt P03956) | > 10 µM |
| CC(C)(C)NC(=O)c1ccc(-c2ccc(S(=O)(=O)C3(C(=O)NO)CCOCC3)cc2)nc1 [Example 205] | Human recombinant MMP-1 (Homo sapiens, UniProt P03956) | 1.07 µM |
| COCCOC1CCC(C(=O)NO)(S(=O)(=O)c2ccc(-c3ccc(CCCC(F)(F)F)cn3)cc2)CC1 (stereo not shown) [Example 209] | Human recombinant MMP-1 (Homo sapiens, UniProt P03956) | 1.28 µM |

Query block: Can you share its Ki? I mean this compound: O=C(NO)C1(S(=O)(=O)c2ccc(-c3cnc4ccccc4n3)cc2)CCOCC1 [Example 194]
Result block: > 10 µM

Query block: Moving on to the next compound: O=C(N1CCCCC1)N1CCC(C(=O)NO)(S(=O)(=O)c2ccc(-c3ccc(CCC(F)(F)C(F)(F)F)cc3)cc2)CC1 [Example 175]
Result block: > 10 µM

Query block: Entry CCN1CCC(C(=O)NO)(S(=O)(=O)c2ccc(-c3noc(-c4ccc(F)cc4)n3)cc2)CC1 [Example 147] please
Result block: > 10 µM

Query block: Entry O=C1c2ccccc2C(=O)N1CCCOc1cccc(-c2ccc(S(=O)(=O)C3(C(=O)NO)CCOCC3)cc2)c1 [Example 196] please
Result block: > 10 µM

###

Measured Ki accompanies every entry in the list below.
biological target: Human recombinant MMP-13 (Homo sapiens); construct: made in house; host or cells: baculovirus / insect cells; test: In vitro MMP inhibition analysis (fluorogenic peptide substrate cleavage), Ki; type: biochemical; conditions: Table 1
Field: numeric (pM). Do not append units.

Worked cases, answers included:
| Molecule | Readout Type | Value |
| --- | --- | --- |
| O=C(NO)C1(S(=O)(=O)c2ccc(-c3ccc(CCCC(F)F)cc3)cc2)CCOCC1 [Example 57] | Ki | 40 |
| O=C(NO)C1(S(=O)(=O)c2ccc(-c3cnc(CCC(F)(F)C(F)(F)F)cn3)cc2)CCOCC1 [Example 55] | Ki | 222 |
| CC(F)(F)CCc1cnc(-c2ccc(S(=O)(=O)C3(C(=O)NO)CCN(C4CC4)CC3)cc2)cn1 [Example 66] | Ki | 230 |

Below: the item to evaluate.
Query block: # query: Ki | item O=C(NO)C1(S(=O)(=O)c2ccc(-c3ccc(OC(F)(F)C(F)F)cc3)cc2)CCN(C2CC2)CC1 [Example 40] | system: Human recombinant MMP-13 (Homo sapiens)
Result block: 66

###

biological target: Human recombinant MMP-13 (Homo sapiens, UniProt P45452); construct: made in house; host or cells: baculovirus / insect cells; experiment: In vitro MMP inhibition analysis (fluorogenic peptide substrate cleavage), Ki; format: biochemical; conditions: Table 2
pKi values for the compounds below.
Worth noting: pKi values are minus log10 of concentrations stated in mol/L.

| Compound | pKi |
| --- | --- |
| O=C(NO)C1(S(=O)(=O)c2ccc(-c3ccc(C(F)(F)F)cn3)cc2)CCOCC1 | 9.89 |

Shifting focus to the compound that follows.
Query block: Returns the measured pKi for the input compound. Input: COCCOC1CCC(C(=O)NO)(S(=O)(=O)c2ccc(-c3ccc(CCCC(F)(F)F)cn3)cc2)CC1 (stereo not drawn)
Result block: 10.54

###

molecular target: Human recombinant MMP-1 (Homo sapiens, UniProt P03956); construct: made in house; host or cells: MMP-1-transfected HT-1080 cells (spent media); assay: In vitro MMP inhibition analysis (fluorogenic peptide substrate cleavage), Ki; assay type: biochemical; conditions: Table 2
Readout Type: Ki (nM)
Report the figure in nM without appending any unit label.

Check out these entries, answers already filled in.
| Cpd Smiles | Ki (nM) |
| --- | --- |
| O=C(NO)C1(S(=O)(=O)c2ccc(-c3ccc(CCO)cc3)cc2)CCOCC1 | 990 |
| CC(C)COc1cnc(-c2ccc(S(=O)(=O)C3(C(=O)NO)CCOCC3)cc2)cn1 | 693 |
| COCCOc1ccc(-c2ccc(S(=O)(=O)C3(C(=O)NO)CCOCC3)cc2)cc1 | 969 |
| O=C(NCC1CCCCC1)c1cnc(-c2ccc(S(=O)(=O)C3(C(=O)NO)CCOCC3)cc2)cn1 | 1310 |
| O=C(NO)C1(S(=O)(=O)c2ccc(-c3ccc4c(c3)OCO4)cc2)CCOCC1 | 81.2 |
| CCCCOc1ccc(-c2ccc(S(=O)(=O)C3(C(=O)NO)CCN(CCOC)CC3)cc2)cc1 | 1770 |
| O=C(NCC1CC1)c1ccc2cc(-c3ccc(S(=O)(=O)C4(C(=O)NO)CCOCC4)cc3)ccc2c1 | 251 |
| CCCCNC(=O)c1cnc(-c2ccc(S(=O)(=O)C3(C(=O)NO)CCOCC3)cc2)cn1 | 533 |

Lab note: next compound to report on.
Query block: Endpoint output: Ki of `COCCN1CCC(C(=O)NO)(S(=O)(=O)c2ccc(-c3cnc(OCC(F)(F)C(F)(F)F)cn3)cc2)CC1` . Value?
Result block: 9580
